Recorded values, source ChEMBL document CHEMBL1129032.

- SYSTEM_UNDER_TEST: Phospholipase A2, membrane associated (Rattus norvegicus)
- Sequence (P14423 whole entry): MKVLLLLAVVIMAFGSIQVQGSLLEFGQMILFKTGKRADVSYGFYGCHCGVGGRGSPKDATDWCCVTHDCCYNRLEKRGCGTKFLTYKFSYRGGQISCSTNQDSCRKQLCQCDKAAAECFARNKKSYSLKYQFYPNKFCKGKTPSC
- MEASUREMENT_PROTOCOL: In vitro inhibition of rat secretory Phospholipase A2 (group II).
pIC50: −log10 of the molar value.
PROPERTY_NAME: pIC50

P = COc1ccc(Sc2ccc(OC)c(C(=O)Oc3c(C)c(C)c(C(=O)Oc4c(C)c(C)c(C(=O)O)c(OC)c4C)c(OC)c3C)c2)cc1C(=O)Oc1c(C)c(C)c(C(=O)Oc2c(C)c(C)c(C(=O)O)c(OC)c2C)c(OC)c1C
Q = COc1c(C)c(OC)c(C(=O)Oc2c(C)c(C)c(C(=O)O)c(OC)c2C)c(C)c1Cc1c(C)c(C(=O)Oc2c(C)c(C)c(C(=O)O)c(OC)c2C)c(OC)c(C)c1OC
input: Field: entry with larger pIC50 (options P / Q ). # reply format: chosen label
output: P
(P: 7.31, Q: 5.34)
